assay: DLS of nanoaggregates of cyclized products; assay type: physicochemical; settings: 10 μM, after raising pH from 4 to 7.4
outcome-measure: diameter of nanoaggregates (DLS) (nm)

>  <compound>
N#Cc1ccc2cc(OCCCNC(=O)c3ccc(CNC(=O)C(N)CS)cc3)ccc2n1 (stereo not shown) [Compound I]

>  <reported-result>
80

$$$$
>  <compound>
C#CCC(NC(=O)C(N)CS)C(=O)NCc1ccc(C(=O)NCCCOc2ccc3nc(C#N)ccc3c2)cc1 (stereo not shown) [Compound II]

>  <reported-result>
80

$$$$

The values you see were collected from patent US11679168B2.
